This collection of values is drawn from patent US11400062B2.

assay: Pharmacokinetics of prodrug following PO administration to rats; conditions: male, Sprague Dawley, rat, plasma, po, 27 mg/kg
Metric: Tmax
State the value with its unit after it.

Name the reported Tmax value associated with the compound C[C@@H](Cc1ccccc1)NC(=O)[C@H](CCCNC(=N)N)NC(=O)CC(=O)O
37.5 min

###

assay: Pharmacokinetics of prodrug following IV administration to rats; conditions: male, Sprague Dawley, rat, plasma, iv, 6 mg/kg
Metric: Cmax (ng/mL)
Quick note: give the figure in ng/mL, leave out the unit.

Name the reported Cmax value associated with the compound C[C@@H](Cc1ccccc1)NC(=O)[C@H](CCCNC(=N)N)NC(=O)CC(=O)O
2600

###

# half-life at 0.761 mM per record follows
molecular target: trypsin (Bos taurus, UniProt P00760); assay: In vitro trypsin conversion of prodrugs to amphetamine and inhibition by trypsin inhibitor; details: bovine, trypsin from bovine pancreas, pH 8
Sequence (P00760 24-246): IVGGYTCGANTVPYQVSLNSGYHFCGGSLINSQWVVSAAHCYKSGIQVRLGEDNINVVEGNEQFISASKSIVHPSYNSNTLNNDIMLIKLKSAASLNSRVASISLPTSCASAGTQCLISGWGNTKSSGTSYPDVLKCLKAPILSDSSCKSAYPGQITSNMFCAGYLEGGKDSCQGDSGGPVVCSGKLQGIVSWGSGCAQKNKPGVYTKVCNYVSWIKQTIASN
Quick note: give the figure in h, leave out the unit.

The following molecules have reported results that may help.
| Molecule | half-life at 0.761 mM (h) |
| --- | --- |
| C[C@@H](Cc1ccccc1)NC(=O)[C@@H](N)CCCCN [Compound AM-3, lisdexamphetamine, reference compound] | 112 |
| CC(=O)N[C@@H](CCCNC(=N)N)C(=O)N[C@@H](C)Cc1ccccc1 (stereo in doubt) | 39.9 |

Next molecule, half-life at 0.761 mM to be filled in.
Checklist item: half-life at 0.761 mM tested on trypsin (Bos taurus, UniProt P00760), entry C[C@@H](Cc1ccccc1)NC(=O)[C@H](CCCNC(=N)N)NC(=O)CC(=O)O , value?
59.9
